Hello, the source for this data is paper PMC9090415, in case you need it.

- Target desc: P. falciparum apicoplast DNA polymerase (Pf-apPOL) (Plasmodium falciparum, UniProt Q8ILY1)
- Sequence (Q8ILY1 entry or part of it): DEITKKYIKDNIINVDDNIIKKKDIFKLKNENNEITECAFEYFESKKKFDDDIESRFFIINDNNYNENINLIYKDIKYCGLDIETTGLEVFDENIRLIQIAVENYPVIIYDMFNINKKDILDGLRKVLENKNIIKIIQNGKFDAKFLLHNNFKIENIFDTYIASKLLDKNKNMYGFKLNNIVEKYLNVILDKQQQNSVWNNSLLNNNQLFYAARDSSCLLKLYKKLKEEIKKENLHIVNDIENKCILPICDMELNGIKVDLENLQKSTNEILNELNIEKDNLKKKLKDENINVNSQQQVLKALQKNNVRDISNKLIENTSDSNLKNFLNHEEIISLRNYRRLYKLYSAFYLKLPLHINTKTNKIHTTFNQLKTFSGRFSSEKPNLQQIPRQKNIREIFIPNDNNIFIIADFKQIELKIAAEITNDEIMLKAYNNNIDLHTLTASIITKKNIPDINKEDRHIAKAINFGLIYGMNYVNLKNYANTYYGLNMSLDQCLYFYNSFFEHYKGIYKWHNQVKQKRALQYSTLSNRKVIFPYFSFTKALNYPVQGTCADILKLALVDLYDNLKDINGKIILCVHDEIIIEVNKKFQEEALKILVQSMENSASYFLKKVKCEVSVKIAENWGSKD
- Protocol summary: Fluorescence-based high-throughput DNA polymerase assay (molecular beacon), primary screen and dose-response;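 also: test concentration in µM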
- Assay type: biochemical
- Conditions used: DRC-2; 90'; concentration 20
Measure name: % inhibition ApPOL 90' (%)

1) NC(=O)c1cc[n+](CC2=C(C(=O)[O-])N3C(=O)[C@@H](NC(=O)[C@@H](c4ccccc4)S(=O)(=O)[O-])[C@H]3SC2)cc1.[Na+] : 74
2) COc1cc(NC(=O)c2ccccc2)c(OC)cc1NC(=O)Cc1cccs1 : 64
3) O=c1[nH]c2ccc(Br)cc2c(-c2ccccc2)c1C1=NNC(c2ccco2)C1 (stereo not shown) : 77
4) O=c1[nH]c2ccc([N+](=O)[O-])cc2c(-c2ccccc2)c1Sc1nc2ccccc2o1 : 40

---

- Target desc: UniProt:Q8ILY1
- Protocol summary: Fluorescence-based high-throughput DNA polymerase assay (molecular beacon), primary screen and dose-response
- Type: biochemical
- Conditions used: DRC-2; concentration 2.5; 90'
Measure name: % inhibition ApPOL 90' (%)

1. O=C(Cn1ccc2c(=O)[nH]ccc21)Nc1ccccc1Cl [Molecule 19, O=C(Cn1ccc2c1cc[nH]c2=O)Nc1ccccc1Cl] : 9
2. Cc1ccc(C2=N/C(=C\c3ccc(I)o3)C(=O)O2)cc1[N+](=O)[O-] : 17
3. Oc1cccnc1/N=C/c1cc(I)cc(I)c1O : 22
4. CCc1ccccc1NC(=O)c1ccc(-c2ncccc2NC(C)=O)cc1 : -1.65
5. O=C(O)c1nc(-c2ccccc2)nc2c1OCO2 : 4
6. COc1cc(/C=C2\C(=O)N(c3ccc(C(=O)O)cc3)N=C2C(F)(F)F)ccc1OCC(C)C : 2.38
7. Cc1ccnc(NS(=O)(=O)c2ccc(-n3cccc3)cc2)n1 : 29
8. Nc1ncnc(NC2CCCCC2)c1[N+](=O)[O-] : -2.42
9. O=C1c2ccccc2C(=O)c2c1oc1c3c(ccc21)OCN(C1CCCC1)C3 : 17

---

- Target desc: P. falciparum apicoplast DNA polymerase (Pf-apPOL) (Plasmodium falciparum, UniProt Q8ILY1)
- Protocol summary: Fluorescence-based high-throughput DNA polymerase assay (molecular beacon), primary screen and dose-response;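 also: test concentration in µM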
- Format: biochemical
- Conditions used: DRC-2; 180'; concentration 10
Measure name: % inhibition apPOL 180' (%)

1. CC(C)(C)c1cc(C(=O)C(C#N)=NNc2cccc(Cl)c2)no1 [Molecule 98] : 31
2. NC(=O)c1cc[n+](CC2=C(C(=O)[O-])N3C(=O)[C@@H](NC(=O)[C@@H](c4ccccc4)S(=O)(=O)[O-])[C@H]3SC2)cc1.[Na+] [Molecule 9] : 41
3. CC(=O)Nc1cc(C(=O)NC(C)C)c2ccc(C)nc2c1 [KU0206312] : 20
4. COCC(=O)Nc1c(-c2cccc(F)c2)nc2cc(C)ccn12 [Molecule 44, COCC(=O)Nc1c(nc2n1ccc(c2)C)c1cccc(c1)F] : 27
5. O=C(NC(C(Cl)Cl)S(=O)(=O)c1ccccc1)c1ccccc1 (stereo not shown) [KU0045239] : 21
6. O=C(O)CCS(=O)(=O)c1ccc(-c2ccc(S(=O)(=O)CCC(=O)O)cc2)cc1 [Molecule 32] : 17
7. COc1ccc(C=C2Oc3c(ccc4c3CN(c3ccc5c(c3)OCO5)CO4)C2=O)cc1OC [KU0199426] : 16
8. CC1(C)CC(=O)C2=C(C1)OC1=C(C(=O)CC(C)(C)C1)C2c1ccc(O)cc1 [KU0194226] : 27
9. Cc1ccc(-n2nnc(C(=O)O)c2-c2ccccn2)c(F)c1 [Molecule 54, Cc1ccc(c(c1)F)n1nnc(c1c1ccccn1)C(=O)O] : 13
10. Cc1cc(C)c2c(O)nc(SCC(=O)c3ccc(O)c(O)c3)nc2n1 [Molecule 88] : 54
11. O=c1[nH]c2ccc([N+](=O)[O-])cc2c(-c2ccccc2)c1Sc1nc2ccccc2o1 [KU0067471] : 10
12. O=C(O)c1ccc(-c2nc3cc(-c4ccc5nc(-c6ccc(C(=O)O)cc6)[nH]c5c4)ccc3[nH]2)cc1 [Molecule 1] : 20
13. COc1cc(Cl)c(C)cc1NC(=O)Cn1ccc2c(=O)[nH]ccc21 [Molecule 33] : 35
14. CN(C)C1C(c2ccccc2)=C(c2ccccc2)SC(c2ccccc2)C1[N+](=O)[O-] (stereo not shown) [KU0268387] : 31
15. CCOC(=O)C1=C2c3cc(OC)c(OC)cc3CC(C)(C)N2C(=O)C1=O [KU0193659] : 23
16. O=C1NCCCn2cc(S(=O)(=O)Nc3ccccc3)cc21 [KU0214835] : 14
